Test system: L1210
PROTOCOL_DESCRIPTION: Tested in vivo for optimal non-toxic dose against L1210 cell line in CDF1 mice
Format: ADME, organism-based
CONDITION: mouse
Assignment: determine reported OD for the given compounds.
Give the number; mg/kg is assumed, so skip it.

Any idea what its OD is? The compound is Cl.Cn1cc(NC(=O)c2cc(NC(=O)c3cc(NC(=O)c4ccc(N(CCCl)CCCl)cc4)cn3C)cn2C)cc1C(=O)NCCC(=N)N [TALLIMUSTINE CHLORIDE]
3.12

Param item = "Cl.Cn1cc(NC(=O)c2cc(NC(=O)c3cc(NC(=O)c4cc(N(CCCl)CCCl)cs4)cn3C)cn2C)cc1C(=O)NCCC(=N)N" ; retrieve measured OD.
1.56

Fill in the blank: the reported OD of "N[C@@H](Cc1ccc(N(CCCl)CCCl)cc1)C(=O)O" is ____.
10

What measured OD goes with "Cn1cc(NC(=O)c2cc(NC(=O)c3cc(NC=O)cn3C)cn2C)cc1C(=O)NCCC(=N)N" ?
200

For the compound shown here, "Cl.Cn1cc(NC(=O)c2cc(NC(=O)c3cc(NC(=O)c4cc(N(CCCl)CCCl)cn4C)cn3C)cn2C)cc1C(=O)NCCC(=N)N" , give the reported OD.
0.39
